experiment: NCI Yeast Anticancer Drug Screen. Data for the rad50 strain (AID 155);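 also: 0% = growth of vehicle-only cultures of the same strain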; conditions: S. cerevisiae rad50 strain growth inhibition; at 33.0 µM; stronger effect = higher value
This is part of a sample that, as a whole, favours compounds with a hit. Of some 79,000 tested, about 15% had one in any assay.
# thresholds on growth inhibition define classes: interval 1 = under 10%, interval 2 = from 10% up to 60%, interval 3 = 60% and over

| COMPOUND | GROUP_LABEL |
| --- | --- |
| COc1cc(C2c3cc4c(cc3OC(OC(C)=O)C2C)OCO4)cc(OC)c1OC (stereo not given) | interval 1 |
| Cc1cc2c(cc1C)[n+]([O-])c(-c1nc3ccccc3s1)c(N)[n+]2[O-] | interval 2 |
| CCOC(=O)c1cc([N+](=O)[O-])c(Sc2ncnc3nc[nH]c23)c([N+](=O)[O-])c1 | interval 3 |
| COC(=O)CCC(NC(=S)N/N=C(\C)c1ccccn1)C(=O)OC (stereo not given) | interval 3 |
| O=C1c2ccccc2C(=O)c2cc(CCl)ccc21 | interval 2 |
| OC(/C=C/c1ccccc1)(Cc1cc(-c2ccccc2)n[nH]1)c1ccccc1 (stereo not given) | interval 2 |
| CC1(C)CC(=O)C(/C=N/c2nc(-c3ccccc3)cs2)=C(O)C1 | interval 2 |
| CN(C)Cc1cc(N=Nc2ccc(Cl)cc2)ccc1OC(=O)c1ccccc1 | interval 1 |
| CNCCCNc1c2ccccc2nc2cccc([N+](=O)[O-])c12 | interval 3 |

----------
test: NCI Yeast Anticancer Drug Screen. Data for the rad52 strain (AID 147);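 also: 0% = growth of vehicle-treated control cultures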; details: S. cerevisiae rad52 mutant growth inhibition; at 100.0 µM
The panel holds about 79,000 compounds, 15% with a hit somewhere; the sample as a whole holds those more often. The source made the active and inactive calls. Rule as the data show it: active = growth inhibition above about 70%; inactive = the rest.
Classes used: YES (active), NO (inactive)

| MOLECULE | GROUP_LABEL |
| --- | --- |
| O=[N+]([O-])c1cccc2nc3ccccc3c(NCCC[N+]3([O-])CCCCC3)c12 | YES |
| CC[N+]1(C)CCC(O)(c2ccc(OC)cc2)C(C(=O)c2ccc(OC)cc2)C1 (centres undefined) | NO |
| CC(=O)OC1CC2C(C)(C)C(=O)C=C[C@]2(C)C2CCC3(C)C(=CCC3[C@H](CO)C[C@H](O)C(=O)C(C)(C)O)[C@]12C (some centres undefined) | YES |
| Cc1c(C)c(C)c(CSC(=N)N)c(C)c1C | YES |
| O=c1nc2n(Cc3ccccc3)c3ccccc3nc-2c(=O)[nH]1 | NO |
| Nc1ncnc2c1ncn2C1OC(CO)CC1O (centres undefined) | YES |
| Cc1cccc2c1nc1ccc(Cl)cc1[n+]2C | YES |
| O=C1CSC(c2cccc(Cl)c2)N1c1ccc(-c2ccc(-n3c(-c4ccccc4)nc4ccccc4c3=O)cc2)cc1 (centres undefined) | NO |
| C=C(C(=C)n1nnc(C(=O)OC)c1C(=O)OC)n1nnc(C(=O)OC)c1C(=O)OC | NO |

----------
test: NCI Yeast Anticancer Drug Screen. Data for the CLN2oe strain (AID 163);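 also: 0% = growth of vehicle-only control cultures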; conditions: S. cerevisiae CLN2oe strain, at 100.0 µM
The panel holds about 79,000 compounds, 15% with a hit somewhere; the sample as a whole holds those more often. Calls of active or inactive are those of the source. Rule as the data show it: active = growth inhibition above about 70%; inactive = the rest.
Classes used: active, inactive

| COMPOUND | GROUP_LABEL |
| --- | --- |
| CC1CC(C)(C)CC(OCCN2CCCCC2)(c2ccccc2)C1 (stereo unspecified) | active |
| Cc1cc(N(CCOS(C)(=O)=O)CCOS(C)(=O)=O)ccc1C=Nc1ccc(-c2nc(Cc3ccccc3)sc2C)cc1 | active |
| CCOC(=O)c1ccc(NC(=O)O/N=C(/Cl)C(C)C)cc1 | active |
| O=C(O)c1cc2ccccc2c2c1C(=O)c1ccccc1-2 | active |
| N#CNC(N)=Nc1cc2ccccc2c2ccccc12 | active |
| Oc1ccc2c(c1)C(O)CCCC2 (stereo unspecified) | inactive |
| COC(=O)C1(C)CCc2c(ccc3ccccc23)C1=O (stereo unspecified) | inactive |
| c1ccc2c(OCC3CO3)cccc2c1 (stereo unspecified) | inactive |
| CC1=CC(=C(c2ccc(N)cc2)c2ccc(N)cc2)C=CC1=N | active |
| CC(=O)Nc1ccc2c(c1)-c1ccccc1C2=O | inactive |
| O=C(CC(=O)n1nc(-c2ccccc2)c(N=Nc2ccc(Cl)cc2)c1-c1ccccc1)Nc1cccc(Cl)c1 | inactive |
